Where these numbers come from: patent US9120851B2

Overview of recorded ka for various molecules
# target of assay: T1, hANGPTL4(26-148)-mFc (Homo sapiens, UniProt Q9BY76)
# T1 construct: amino acid residues 26-148 of human ANGPTL4 fused in-line to mouse IgG2a (hANGPTL4-mFc)
# T1 sequence (Q9BY76 with tags, fused parts or gaps): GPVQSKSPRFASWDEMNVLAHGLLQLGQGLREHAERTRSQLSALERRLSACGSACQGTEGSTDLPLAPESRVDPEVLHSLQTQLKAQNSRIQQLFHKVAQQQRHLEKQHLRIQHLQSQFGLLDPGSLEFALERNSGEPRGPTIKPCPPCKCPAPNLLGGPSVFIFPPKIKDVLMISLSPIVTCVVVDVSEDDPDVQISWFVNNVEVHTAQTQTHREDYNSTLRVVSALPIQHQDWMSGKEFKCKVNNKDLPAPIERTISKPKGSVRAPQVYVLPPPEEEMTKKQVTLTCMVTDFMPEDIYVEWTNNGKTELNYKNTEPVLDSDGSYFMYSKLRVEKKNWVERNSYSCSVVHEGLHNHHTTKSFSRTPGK
# test: BIACORE, full mAb or Fab over anti-mFc captured hANGPTL4(26-148)-mFc
# Format: binding
# experimental conditions: pH 7.2, 25° C.
measurement name: ka

molecule: H1H268P: anti-hANGPTL4 antibody, hIgG1 isotype, HCVR/LCVR SEQ ID NOs 42/44 (antibody, V domains shown) VH: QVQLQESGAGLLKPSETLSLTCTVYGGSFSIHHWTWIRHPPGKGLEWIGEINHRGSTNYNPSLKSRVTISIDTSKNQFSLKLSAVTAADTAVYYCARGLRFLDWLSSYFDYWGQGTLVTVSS VL: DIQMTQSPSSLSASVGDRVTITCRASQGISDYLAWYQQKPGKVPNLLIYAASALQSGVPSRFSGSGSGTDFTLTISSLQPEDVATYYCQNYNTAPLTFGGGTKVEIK
measurement name: ka
result: 153000 M⁻¹ s⁻¹
//
molecule: H1H284P: anti-hANGPTL4 antibody, hIgG1 isotype, HCVR/LCVR SEQ ID NOs 90/92 (antibody, V domains shown) VH: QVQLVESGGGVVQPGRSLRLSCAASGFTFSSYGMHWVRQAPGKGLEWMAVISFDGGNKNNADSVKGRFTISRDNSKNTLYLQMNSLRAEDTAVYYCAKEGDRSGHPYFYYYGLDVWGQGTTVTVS VL: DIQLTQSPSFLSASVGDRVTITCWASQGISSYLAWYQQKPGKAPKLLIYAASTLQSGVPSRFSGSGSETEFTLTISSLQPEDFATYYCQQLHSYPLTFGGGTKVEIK
measurement name: ka
result: 274000 M⁻¹ s⁻¹
//
molecule: H1H284P Fab: Fab fragment of H1H284P prepared by papain digestion (antibody, V domains shown) VH: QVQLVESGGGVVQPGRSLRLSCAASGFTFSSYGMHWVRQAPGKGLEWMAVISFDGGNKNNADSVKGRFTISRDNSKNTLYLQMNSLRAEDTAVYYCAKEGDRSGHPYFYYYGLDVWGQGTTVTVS VL: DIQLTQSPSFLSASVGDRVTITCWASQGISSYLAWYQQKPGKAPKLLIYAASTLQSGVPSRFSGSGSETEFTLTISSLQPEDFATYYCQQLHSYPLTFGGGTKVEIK
measurement name: ka
result: 245000 M⁻¹ s⁻¹
//
molecule: H1H268P Fab: Fab fragment of H1H268P prepared by papain digestion (antibody, V domains shown) VH: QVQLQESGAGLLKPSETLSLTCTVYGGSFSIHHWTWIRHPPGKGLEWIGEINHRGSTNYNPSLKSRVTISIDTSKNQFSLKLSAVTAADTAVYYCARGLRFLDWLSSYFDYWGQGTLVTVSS VL: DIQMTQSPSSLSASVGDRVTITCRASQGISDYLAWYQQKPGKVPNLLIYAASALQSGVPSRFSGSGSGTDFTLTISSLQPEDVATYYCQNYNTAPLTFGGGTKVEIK
measurement name: ka
result: 300000 M⁻¹ s⁻¹
